The measured values listed here are drawn from ChEMBL document CHEMBL1151692.

Molecular target: Peptidylglycine alpha-amidating monooxygenase (Rattus norvegicus)
Sequence (whole entry): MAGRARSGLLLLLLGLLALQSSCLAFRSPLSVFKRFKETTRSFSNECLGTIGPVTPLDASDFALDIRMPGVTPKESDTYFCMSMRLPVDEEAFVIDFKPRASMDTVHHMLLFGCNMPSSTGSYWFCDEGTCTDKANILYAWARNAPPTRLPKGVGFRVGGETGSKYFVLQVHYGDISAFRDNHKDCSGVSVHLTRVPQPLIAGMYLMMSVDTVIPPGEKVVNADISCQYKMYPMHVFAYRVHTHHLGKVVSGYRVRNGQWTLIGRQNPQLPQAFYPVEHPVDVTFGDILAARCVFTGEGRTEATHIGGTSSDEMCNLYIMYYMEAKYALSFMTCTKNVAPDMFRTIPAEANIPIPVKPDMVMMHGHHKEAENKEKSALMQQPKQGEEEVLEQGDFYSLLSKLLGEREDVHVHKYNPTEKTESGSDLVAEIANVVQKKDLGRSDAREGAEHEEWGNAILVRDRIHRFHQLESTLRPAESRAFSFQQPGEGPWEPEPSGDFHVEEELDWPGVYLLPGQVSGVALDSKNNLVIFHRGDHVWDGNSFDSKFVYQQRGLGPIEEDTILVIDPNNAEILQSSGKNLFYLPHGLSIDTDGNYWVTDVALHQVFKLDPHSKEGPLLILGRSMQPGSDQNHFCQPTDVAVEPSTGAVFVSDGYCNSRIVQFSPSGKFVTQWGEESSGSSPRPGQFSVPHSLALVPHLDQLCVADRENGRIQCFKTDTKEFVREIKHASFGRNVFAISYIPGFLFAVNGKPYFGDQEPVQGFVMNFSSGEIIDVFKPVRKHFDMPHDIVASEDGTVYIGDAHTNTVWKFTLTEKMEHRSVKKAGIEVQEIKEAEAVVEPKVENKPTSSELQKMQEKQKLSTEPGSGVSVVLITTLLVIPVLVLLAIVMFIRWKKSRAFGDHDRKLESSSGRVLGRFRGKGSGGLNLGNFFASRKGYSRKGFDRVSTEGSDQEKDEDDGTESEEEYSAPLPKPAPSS
Test: Activity of rat recombinant peptidylglycine alpha-amidating monooxygenase assessed as stimulation of oxygen consumption
Where a SMILES comes first, the peptide text is derived from it. [ ]: non-standard residue; d: D form. The star is where a group is joined. pGlu = O=C1CC[C@@H](C(=O)O)N1; ClAc = O=C(CCl)*
Listed here are compounds together with their documented Vmax(app).

Look over these answered cases.
>>> df
                                   compound  observed
0                     CC(=O)NCC(=O)NCC(=O)O   8.9 s⁻¹
1                O=C(O)CNC(=O)/C=C/c1ccccc1   8.4 s⁻¹
2  O=C(O)CNC(=O)CNC(=O)CCl (ClAc-Gly-Gly-OH)   8.9 s⁻¹
3                 O=C(O)CNC(=O)c1ccc(Br)cc1   2.5 s⁻¹
4                     CC(=O)N[C@H](C)C(=O)O   1.3 s⁻¹
5                   O=C(O)CNC(=O)OCc1ccccc1   8.6 s⁻¹

In: GET /values?readout=Vmax(app)&item= "O=C(O)CNC(=O)c1ccc([N+](=O)[O-])cc1"
Out: 4.2 s⁻¹

In: Can you handle "C[C@@H](NC(=O)c1ccccc1)C(=O)O" next?
Out: 0.27 s⁻¹

In: Try this compound too: "O=C(O)CNC(=O)CSc1ccccc1"
Out: 4.6 s⁻¹

In: Now consider "O=C(O)CNC(=O)c1cccc(Cl)c1" .
Out: 7.8 s⁻¹

In: Try O=C(O)CNC(=O)[C@@H]1CCC(=O)N1 ([pGlu]-Gly-OH) next.
Out: 9.3 s⁻¹
